Reference source: PubChem BioAssay (NCI)

# System: CAKI-1 renal
# experimentDescription: NCI-60 one-dose screen, 48 h (100 = growth as untreated, 0 = no growth, -100 = all killed)
# appliedConditions: 10 µM unless noted
The panel holds about 83,000 compounds, 20% with a hit somewhere; the sample as a whole holds those more often. Activity calls are given as the source filed them. How the source made its calls: active means growth percent below 10; inactive means the rest.
propertyMeasured: growth

In the examples that follow, each entry is paired with its recorded growth.
[
  {
    "compound": "NC(N)=Nc1nc2ccccc2n2c1nc1ccccc12",
    "reading": "23.2% (inactive)"
  },
  {
    "compound": "O=C(/C=C/c1c(Cl)nc2sccn12)c1nccs1",
    "reading": "78.8% (inactive)"
  },
  {
    "compound": "Clc1ccc(-c2c3ccc(=[N+]4CCCCC4)cc-3oc3cc(N4CCCCC4)ccc23)cc1",
    "reading": "-75.2% (active)"
  },
  {
    "compound": "CC/C=C\\CCC/C=C1/C(=O)C=C[C@@H]1C/C=C\\CCCC(=O)O",
    "reading": "60.1% (inactive)"
  },
  {
    "compound": "Cc1ccc(NCCN(C)C)c2c(=O)c3ccccc3sc12",
    "reading": "-20% (active)"
  },
  {
    "compound": "c1ccc(-c2nc([P+](c3ccccc3)(c3ccccc3)c3ccccc3)c(N3CCOCC3)o2)cc1",
    "reading": "50.9% (inactive)"
  },
  {
    "compound": "COc1cc(C2CC(c3cc(OC)c(OCCCOc4ccc(-n5c(/C=C/c6ccccc6)nc6ccccc6c5=O)cc4)c(OC)c3)=NO2)cc(OC)c1OC (centres undefined)",
    "reading": "115% (inactive)"
  },
  {
    "compound": "O=C(NC(CSSCC(NC(=O)c1ccccc1)C(=O)O)C(=O)O)c1ccccc1 (centres undefined)",
    "reading": "91.6% (inactive)"
  }
]

Please supply growth for each of the following items, keeping them in order.
1. Nc1ccc2c(c1)c(N)nn2C(=O)Nc1ccc(Cc2ccccc2)cc1
2. COc1ccc(N=C(c2ccccc2)C2C(=O)c3ccccc3C2=O)cc1
3. COc1ccc(-c2csc(C3=C(O)CN(C(C)C)C3=N)n2)cc1OC
4. FC(F)(F)c1cc(Nc2ccc3cc(OCCCN4CCOCC4)ccc3n2)ccc1Cl
5. COc1cc(/C=C/C(=O)c2c(C)nc3ccccc3c2C)ccc1OCCCN1CCN(C(=O)c2ccco2)CC1

Response:
["38.9% (inactive)", "88.1% (inactive)", "82.1% (inactive)", "86.1% (inactive)", "74.8% (inactive)"]

Items follow; give growth for each.
1. Cc1ccc(NS(=O)(=O)c2ccc3c(c2)C(=O)CC(c2ccc(C(=O)C(C)C)cc2)N3)cc1C (centres undefined)
2. O=C(NCCCNc1cc(-c2cn(-c3ccccc3)nc2-c2cccc(O)c2)ccn1)c1ccc(F)cc1
3. N#C/C(=C\c1ccc(-c2ccccc2F)o1)c1nc(-c2ccco2)cs1
4. COc1cc(/C=C/C(=O)N2CCN(C(=O)c3cc(OC)c(OC)c(OC)c3)CC2)ccc1OCCCN1C(=O)c2cccc3cccc(c23)C1=O

Response:
55.9% (inactive)
12.4% (inactive)
56.8% (inactive)
72.9% (inactive)
